These measurements were taken from patent US20250215104A1.

Molecular target: T1, cynomolgus soluble urokinase plasminogen activator receptor (suPAR) (cynomolgus, UniProt Q9GK78 23-303, limits assumed)
T1 construct: Column head says only 'cynomologus'; also called cynomolgus suPAR; cynomolgus uPAR
T1 sequence (Q9GK78 23-303 limits assumed): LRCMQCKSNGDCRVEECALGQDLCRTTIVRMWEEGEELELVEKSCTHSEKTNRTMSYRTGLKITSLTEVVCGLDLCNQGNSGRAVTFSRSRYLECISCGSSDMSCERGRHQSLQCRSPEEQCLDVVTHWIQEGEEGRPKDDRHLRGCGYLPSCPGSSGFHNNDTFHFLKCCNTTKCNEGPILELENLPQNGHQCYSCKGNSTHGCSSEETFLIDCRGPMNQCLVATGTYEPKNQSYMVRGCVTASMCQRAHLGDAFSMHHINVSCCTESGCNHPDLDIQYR
Test: BLI (Octet) off-rate screen of scFv clones
observable: koff (s⁻¹)
Answers are plain numbers, in s⁻¹.

I need koff for every entry listed below, if you could help.
1. suPAR_DB05_C08 (scFv, V domains shown, Screened as scFv) VH: QVQLVQSGAEVKKPGASVKVSCKASGYTFTSYYMHWVRQAPGQGLEWMGWIDPENGNTIYDQKFQGRVTMTRDTSTSTVYMELSSLRSEDTAVYYCARGYDVDWFVYWGQGTLVTVSS VL: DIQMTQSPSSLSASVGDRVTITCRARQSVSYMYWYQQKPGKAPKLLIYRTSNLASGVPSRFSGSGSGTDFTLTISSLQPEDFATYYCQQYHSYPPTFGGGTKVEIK
2. suPAR_DB05_A05 (scFv, V domains shown, Screened as scFv) VH: QVQLVQSGAEVKKPGASVKVSCKASGYTFTNYYMHWVRQAPGQGLEWMGWIDPSGGSTSYAQKFQGRVTMTRDTSTSTVYMELSSLRSEDTAVYYCARGYDVDWFVYWGQGTLVTVSS VL: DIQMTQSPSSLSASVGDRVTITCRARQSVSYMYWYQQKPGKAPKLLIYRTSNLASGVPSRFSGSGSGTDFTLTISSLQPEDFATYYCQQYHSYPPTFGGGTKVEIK
3. suPAR_DB05_D06 (scFv, V domains shown, Screened as scFv) VH: QVQLVQSGAEVKKPGASVKVSCKASGYTFSSYYMHWVRQAPGQGLEWMGWIDHENGNTIYDQKFQGRVTMTRDTSTSTVYMELSSLRSEDTAVYYCARGDDVDWFVYWGQGTLVTVSS VL: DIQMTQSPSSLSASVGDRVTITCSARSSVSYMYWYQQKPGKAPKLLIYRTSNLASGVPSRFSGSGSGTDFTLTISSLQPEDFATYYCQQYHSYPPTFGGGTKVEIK
4. suPAR_DB04_H05 (scFv, V domains shown, Screened as scFv) VH: QVQLVQSGAEVKKPGASVKVSCKASGHTLNSYYMHWVRQAPGQGLEWMGWIDPEGGNTIYAQKFQGRVTMTRDTSTSTVYMELSSLRSEDTAVYYCARGYDVDWFVYWGQGTLVTVSS VL: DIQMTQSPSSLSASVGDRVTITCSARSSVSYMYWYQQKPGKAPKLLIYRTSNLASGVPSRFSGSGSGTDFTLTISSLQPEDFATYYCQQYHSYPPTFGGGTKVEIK
5. suPAR_DB05_E05 (scFv, V domains shown, Screened as scFv) VH: QVQLVQSGAEVKKPGASVKVSCKASGYNFTNYYMHWVRQAPGQGLEWMGWIDHSNGSTIYDQKFQGRVTMTRDTSTSTVYMELSSLRSEDTAVYYCARGYDVDWFVYWGQGTLVTVSS VL: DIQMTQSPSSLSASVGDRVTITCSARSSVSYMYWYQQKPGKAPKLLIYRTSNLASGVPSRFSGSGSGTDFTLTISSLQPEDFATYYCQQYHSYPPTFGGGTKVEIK

1. 0.000548
2. 0.000639
3. 0.000375
4. 0.000182
5. 0.000298
